src = PubChem BioAssay AID588385

Reported pEC50 is given for each of the following compounds.
# TEST_SYSTEM: Cell division control protein 42 homolog (Homo sapiens)
# PROTOCOL_DETAILS: inhibitors of wildtype Cdc42 GTP binding, SAR follow-up, biochemical, bead multiplex, flow cytometry, round 1 (AID 588385)
# CONDITION: GST-Cdc42 wt beads, Bodipy-GTP binding
pEC50 field: float, defined as -log10 of concentration (mol/L).

// known answers, use as guide
| COMPOUND | pEC50 |
| --- | --- |
| CC1(C)Cc2c(sc(NC(=S)NC(=O)c3ccccc3F)c2C(=O)O)CO1 | 7.10 |
| COc1ccc(C(=O)NC(=S)Nc2sc3c(c2C(=O)O)CC(C)(C)OC3)cc1 | 6.30 |
| CC1(C)Cc2c(sc(NC(=S)NC(=O)c3ccc(Br)cc3)c2C(=O)O)CO1 | 6.34 |
| CC1(C)CCc2sc(NC(=S)NC(=O)c3ccccc3)c(C(=O)O)c2C1 | 6.77 |
| CC1(C)Cc2c(sc(NC(=S)NC(=O)c3cccc(F)c3)c2C(=O)O)CO1 | 6.50 |
| COc1cccc(C(=O)NC(=S)Nc2sc3c(c2C(=O)O)CC(C)(C)OC3)c1 | 7.09 |
| CC1(C)Cc2c(sc(NC(=S)NC(=O)c3ccccc3Br)c2C(=O)O)CO1 | 7.04 |
| CC1Cc2c(sc(NC(=S)NC(=O)c3ccccc3)c2C(=O)O)CO1 (centres undefined) | 6.39 |

Entry `O=C(NC(=S)Nc1sc2c(c1C(=O)O)CCOC2)c1ccccc1` , system Cell division control protein 42 homolog (Homo sapiens): what pEC50 was measured? 7.40
